- experimental.system: T1, human ACVR2A (human, UniProt P27037 20-135, limits assumed); also: test concentration or dose not given here
- T1 construct: also called activin receptor, type II A
- T1 sequence (P27037 20-135 limits assumed): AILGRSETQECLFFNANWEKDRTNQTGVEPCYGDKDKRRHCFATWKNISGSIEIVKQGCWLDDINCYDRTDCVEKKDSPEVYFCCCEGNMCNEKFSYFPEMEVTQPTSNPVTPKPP
- protocol.details: ELISA
recorded.endpoint: optical density (OD)

binder="365_A04 (antibody, V domains shown, VH and VL only) VH: EVQLLESGGGLVQPGGSLRLSCAASGFTFSDYSMNWVRQAPGKGLEWVSGINYNSGYTSYADSVKGRFTISRDNSKNTLYLQMNSLRAEDTAVYYCARSATWHDTHLDYWGQGTLVTVSS VL: DIQMTQSPSSLSASVGDRVTITCRASQSIVSYVNWYQQKPGKAPKLVIYAATSLASGVPSRFSGSGSGTDFTLTISSLQPEDFATYYCQQSYSTPLTFGGGTKVEIK" recorded_endpoint="optical density" recorded_result=1.49
binder="374_G02 (antibody, V domains shown, VH and VL only) VH: EVQLLESGGGLVQPGGSLRLSCAASGFTFDSYSMNWVRQAPGKGLEWVSGINYNSGYTSYADSVKGRFTISRDNSKNTLYLQMNSLRAEDTAVYYCARSATWHDTHLDYWGQGTLVTVSS VL: DIQMTQSPSSLSASVGDRVTITCRASQSILTYLNWYQQKPGKAPKLLIYAASSLQSGVPSRFSGSGSGTDFTLTISSLQPEDFATYYCQQSYDTPLTFGGGTKVEIK" recorded_endpoint="optical density" recorded_result=3.52
binder="366_E03 (antibody, V domains shown, VH and VL only) VH: EVQLLESGGGLVQPGGSLRLSCAASGFTFDSYGMNWVRQAPGKGLEWVSNINYNGGYKSYADSVKGRFTISRDNSKNTLYLQMNSLRAEDTAVYYCARSATWHDTHLDYWGQGTLVTVSS VL: DIQMTQSPSSLSASVGDRVTITCRASQSILTYLNWYQQKPGKAPKLVIYAATSRHSGVPSRFSGSGSGTDFTLTISSLQPEDFATYYCQQSYSNPLTFGGGTKVEIK" recorded_endpoint="optical density" recorded_result=2.55
binder="365_G02 (antibody, V domains shown, VH and VL only) VH: EVQLLESGGGLVQPGGSLRLSCAASGFTFSDYSMNWVRQAPGKGLEWVSNINYNSGYKGYADSVKGRFTISRDNSKNTLYLQMNSLRAEDTAVYYCARSATWHDTHLDYWGQGTLVTVSS VL: DIQMTQSPSSLSASVGDRVTITCRASQSIVTYLNWYQQKPGKAPKLVIYAVTSLHSGVPSRFSGSGSGTDFTLTISSLQPEDFATYYCQQSYELPLTFGGGTKVEIK" recorded_endpoint="optical density" recorded_result=1.98
binder="376_A01 (antibody, V domains shown, VH and VL only) VH: EVQLLESGGGLVQPGGSLRLSCAASGFTFDSYGMNWVRQAPGKGLEWVSNINYNGGYTGYADSVKGRFTISRDNSKNTLYLQMNSLRAEDTAVYYCARSATWHDTHLDYWGQGTLVTVSS VL: DIQMTQSPSSLSASVGDRVTITCRASQSIVSYLNWYQQKPGKAPKLLIYAATSRASGVPSRFSGSGSGTDFTLTISSLQPEDFATYYCQQSYSTPLTFGGGTKVEIK" recorded_endpoint="optical density" recorded_result=3.24
